System: Raji
Experiment: Survival of Raji cells at 32 nmol by trypan blue staining method
Type: functional, Homo sapiens
Would you kindly list Survival for each of these compounds?
Answer format reminder: number followed by unit.

SMILES_REPR: COc1ccc(C/C=C/c2ccccc2)c(OC)c1O
Survival: 60%

SMILES_REPR: COc1c(O)ccc(C/C=C/c2ccccc2)c1OC
Survival: 60%

SMILES_REPR: COc1cc(/C=C/Cc2ccc(O)c(O)c2OC)ccc1OC(C)=O
Survival: 60%

SMILES_REPR: COc1ccc(C/C=C/c2ccccc2)c(OCC=C(C)C)c1OCC=C(C)C
Survival: 70%

SMILES_REPR: COc1ccc(C/C=C/c2ccccc2)c(OC)c1OC
Survival: 60%

Need Survival for each of these compounds.
1. COc1cc(/C=C/Cc2ccc(OC)c(O)c2OCC=C(C)C)ccc1O
2. COc1cc(OCC=C(C)C)ccc1C/C=C/c1ccccc1

Given back:
1. 70%
2. 70%

Need Survival for each of these compounds.
1. COc1ccc(C/C=C/c2ccccc2)c(OCC=C(C)C)c1O
2. COc1c(C/C=C/c2ccccc2)ccc(OCC=C(C)C)c1OCC=C(C)C
3. COc1cc(/C=C/Cc2ccc(OC)c(O)c2O)ccc1OC(C)=O
4. COc1ccc(C/C=C/c2ccccc2)c(O)c1

Given back:
1: 70%; 2: 70%; 3: 60%; 4: 60%

Asked: Test system Raji; read-out Survival; what value for `COc1ccc(C/C=C/c2ccccc2)c(O)c1OCC=C(C)C` ?
Given back: 70%
